Items are presented alongside their recorded pEC50.
- Tested on: Hepatitis C virus
- protocol.summary: Antiviral activity against Hepatitis C virus subtype 1b infected in human HuH7 cells
- Format: functional, organism-based, Hepacivirus hominis
- details: genotype 1b, Huh-7
pEC50: −log10 of the molar value.

Look over these answered cases.
| smiles.code | result |
| --- | --- |
| CNc1ncnc2c1c(-c1ccccc1)cn2[C@@H]1O[C@H](CO)[C@@H](O)[C@H]1O | < 4.36 |
| Nc1nc2c(c(-c3ccco3)cn2[C@@H]2O[C@H](CO)[C@@H](O)[C@H]2O)c(=O)[nH]1 | < 4.36 |
| Nc1nc(N)c2c(-c3ccsc3)cn([C@@H]3O[C@H](CO)[C@@H](O)[C@H]3O)c2n1 | < 4.36 |
| COc1ncnc2c1ccn2[C@@H]1O[C@H](CO)[C@@H](O)[C@H]1O | < 4.36 |
| CNc1ncnc2c1c(-c1ccsc1)cn2[C@@H]1O[C@H](CO)[C@@H](O)[C@H]1O | < 4.36 |

Exercise: Can you share its pEC50? I mean this compound: O=c1[nH]cnc2c1c(-c1ccco1)cn2[C@@H]1O[C@H](CO)[C@@H](O)[C@H]1O
Key: < 4.36

Exercise: Can you share its pEC50? I mean this compound: Nc1ncnc2c1c(-c1cccs1)cn2[C@@H]1O[C@H](CO)[C@@H](O)[C@H]1O
Key: < 4.36

====

- System: K562
- protocol.summary: Cytostatic activity against human K562 cells after 72 hrs by MTT assay
- Type: functional, cell-based
- details: K562, 72 h
Items are presented alongside their recorded IC50.

Look over these answered cases.
| smiles.code | IC50 |
| --- | --- |
| COc1ncnc2c1c(-c1ccccc1)cn2[C@@H]1O[C@H](CO)[C@@H](O)[C@H]1O | > 20 µM |
| COc1nc(N)nc2c1c(-c1ccsc1)cn2[C@@H]1O[C@H](CO)[C@@H](O)[C@H]1O | > 20 µM |

Let us examine a further case.
Exercise: Can you share its IC50? I mean this compound: Nc1nc(N)c2c(-c3cccs3)cn([C@@H]3O[C@H](CO)[C@@H](O)[C@H]3O)c2n1
Key: > 20 µM

====

Items are presented alongside their recorded IC50.
- protocol.summary: Cytostatic activity against human CEM-DNR-bulk cells after 72 hrs by MTT assay
- Format: functional, cell-based
Write it as a number; the unit µM goes unstated.

Look over these answered cases.
| smiles.code | display.unit | IC50 |
| --- | --- | --- |
| C#Cc1cn([C@@H]2O[C@H](CO)[C@@H](O)[C@H]2O)c2ncnc(NC)c12 | µM | 18.5 |
| COc1ncnc2c1c(-c1ccco1)cn2[C@@H]1O[C@H](CO)[C@@H](O)[C@H]1O | µM | 0.16 |
| CSc1ncnc2c1ccn2[C@@H]1O[C@H](CO)[C@@H](O)[C@H]1O | µM | 3.61 |
| Cc1nc(N)c2c(I)cn([C@@H]3O[C@H](CO)[C@@H](O)[C@H]3O)c2n1 | µM | 3.48 |

Exercise: Can you share its IC50? I mean this molecule: Nc1nc2c(c(-c3ccoc3)cn2[C@@H]2O[C@H](CO)[C@@H](O)[C@H]2O)c(=O)[nH]1
Key: 15

Exercise: Can you share its IC50? I mean this molecule: CN(C)c1ncnc2c1ccn2[C@@H]1O[C@H](CO)[C@@H](O)[C@H]1O
Key: 2.6
